// data source = the supplement of paper PMC10724198

# Tested on: Saccharomyces cerevisiae;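 further: PSI is a weighted mean of sequencing reads over stability bins, variants kept only with over 10 reads, mCherry proximal and sfGFP distal, peptide attached via GGGS linker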
# PROTOCOL_NOTES: protein stability index of tFT-peptide fusion (C-terminal peptide) (PSI (0-1 scale)); higher = more stable (slower turnover)
# CONDITION_PARAMETERS: genetic background: das1 deletion; temperature: 37 C
Could you please report measured protein stability index for the items listed next?
Numbers only.

Worked cases, protein stability index given:
ORDERED_RESIDUES | TARGET_OR_TEST_SYSTEM | protein stability index
WVWCVCVVVWCG | Saccharomyces cerevisiae | 0.256
VHHAFLPYTLVR | Saccharomyces cerevisiae | 0.591
HALCLSVYVSAH | Saccharomyces cerevisiae | 0.397
VFVRDFLVSIVV | Saccharomyces cerevisiae | 0.196
WPPPPPSLLLLC | Saccharomyces cerevisiae | 0.611

Go through the items and report each one's protein stability index.
1. GGGVGVAVVLFW
2. SRCLALVICYRV
3. LLDIYFILLVWF
4. GALVVSWAEVLC
5. WVGVVLLSVVGG

# output
1. 0.53
2. 0.598
3. 0.399
4. 0.555
5. 0.344

Go through the items and report each one's protein stability index.
1. AFAFLLHRFLLV
2. VCFLCIWLYSED
3. TYCFRVCAWRAN

# output
1: 0.584; 2: 0.43; 3: 0.677

Go through the items and report each one's protein stability index.
1. LIFLSISFISSL
2. RSRRNRYSRKIA
3. RSRCVRAAVKVG
4. SCIVRTLVPCPS
5. SYVLLQSYVSLV
6. FVSFTVSFSVVV

# output
0.316
0.696
0.707
0.476
0.643
0.417

Go through the items and report each one's protein stability index.
1. AFRRFLLYCRFI
2. LSYRFVFRFLLF
3. FCFYLLFLGFTR
4. VGVYVWRGVLWA
5. GTSDLIALLMLT
6. CLVKIVIFFLFS

# output
1. 0.607
2. 0.573
3. 0.546
4. 0.444
5. 0.706
6. 0.371

Go through the items and report each one's protein stability index.
1. ALWRAWLRLRIW
2. CLISILLFLCFT
3. EKIIVAVLFVVP
4. IKTKGRYKKQRT

# output
1: 0.733; 2: 0.459; 3: 0.504; 4: 0.743

Go through the items and report each one's protein stability index.
1. VRVWLLACASKG
2. LFLFVGCSVRRL
3. FLFFLFVVFVFV
4. LEPFTGYTVIVM
5. GFSSRWLMQYMV

# output
1. 0.378
2. 0.599
3. 0.379
4. 0.331
5. 0.747

Go through the items and report each one's protein stability index.
1. SLPIFSGVASVR
2. GSGCLFNRWRIL
3. RSPVVVFAVLLF
4. LPASLSLWPLLC
5. FFSCFFFSVLYR
6. LLLLGVSLFLVR

# output
[0.778, 0.733, 0.524, 0.668, 0.425, 0.454]

Go through the items and report each one's protein stability index.
1. GVWSLDWFLLVW
2. FICYDRILTVYY
3. WRAFVFYHHFLD
4. FVLSLGQLVFIF
5. VGVLWALIVGVR

# output
[0.223, 0.524, 0.699, 0.607, 0.36]
